Every entry's value here was drawn from PubChem BioAssay (NCI).

# Test system: SK-MEL-28 melanoma
# TEST NAME: NCI tumour cell line growth inhibition, 48 h
# GI50 per record follows

CC(=O)N1CC(Nc2ccc(OC(F)(F)F)cc2)=CC1=O : 7.29 µM
CCN(CC)CCCNc1cccc2c(SCc3ccccc3)ccnc12 : 1.99 µM
Cc1cccc(Oc2nccc(-c3c(-c4ccc(F)cc4)ncn3C3CCNCC3)n2)c1C : 4.65 µM
CC(C)CCOc1ccc(-c2n[nH]c(C(F)(F)F)c2-c2cncc(C#N)c2)c(O)c1 : 2.17 µM
COc1ccc(C(=O)c2ccc(OC)c(OC)c2OC)cc1 : 4.51 µM

query: Which measured GI50 value corresponds to COc1ccccc1-n1c(-c2cc(O)ccc2C)cn2c3c(=O)[nH]c(=O)n(C)c3nc12 ?
result: > 100 µM

query: Which measured GI50 value corresponds to CC(=O)c1ccc(NC(=O)CSc2nnc(-c3cc(-c4ccc(C)cc4)nc4ccccc34)o2)cc1 ?
result: > 100 µM

query: Which measured GI50 value corresponds to O=C1OCC(c2cccs2)=C1Cl ?
result: 76.8 µM

###

# System: OVCAR-8 ovarian
# TEST NAME: NCI tumour cell line growth inhibition, 48 h; in the data active = GI50 below about 0.43 µM; inactive = the rest
Allowed answers: active, inactive

Illustrative cases are given below, each with its answer.
O=C1OCC(c2cccs2)=C1Cl : inactive
COc1ccc(NC(=O)n2nc(N)c3ccccc32)cc1OC : inactive

query: What did the test return for CCOc1ccc([C@@H]2[C@@H](Oc3ccccc3)C(=O)N2c2cc(OC)c(OC)c(OC)c2)cc1 ?
result: active

query: What did the test return for CC(=O)Nc1ccc(Sc2ccc([N+](=O)[O-])o2)cc1 ?
result: inactive

query: What did the test return for CC(=O)c1ccc(NC(=O)CSc2nnc(-c3cc(-c4ccc(C)cc4)nc4ccccc34)o2)cc1 ?
result: inactive

query: What did the test return for CCC(C)n1cc(C)c2c(C(=O)NCc3c(C)cc(C)[nH]c3=O)cc(Br)cc21 (stereo unspecified) ?
result: inactive

query: What did the test return for CC(=O)N1CC(Nc2ccc(OC(F)(F)F)cc2)=CC1=O ?
result: inactive

###

# Test system: LOX IMVI melanoma
# TEST NAME: NCI tumour cell line growth inhibition, 48 h
# GI50 per record follows

In the examples that follow, each entry is paired with its recorded GI50.
NC(CSC(c1ccccc1)(c1ccccc1)c1ccc(Cl)cc1)C(=O)O (configuration not stated) : 0.682 µM
C=C(C)[C@@H]1CC[C@]2(C)[C@H](C(=O)C=C3[C@@H]4C[C@](C)(C(=O)N5CCN(C)CC5)CC[C@]4(C)CC[C@]32C)[C@@]1(C)CCC#N : 6.24 µM
Cc1cc2cc3cc(C)c(N(C)C)cc3nc2cc1N(C)C : 3.33 µM
COc1ccccc1-n1c(-c2cc(O)ccc2C)cn2c3c(=O)[nH]c(=O)n(C)c3nc12 : 2.28 µM
CC(=O)c1c(C(F)(F)F)n([O-])c2ccc(Cl)cc2[n+]1=O : 0.652 µM
CC(=O)Nc1ccc(Sc2ccc([N+](=O)[O-])o2)cc1 : 1.45 µM

query: Which measured GI50 value corresponds to COc1cc(NCCCCN=C(N)NC(N)=NC(C)C)c2ncccc2c1 ?
result: 3.68 µM

query: Which measured GI50 value corresponds to CCN(CC)c1cc(/C=C/c2ccc(OC)c(OC)c2)nc2cc(F)c(F)cc12 ?
result: 7.24 µM

query: Which measured GI50 value corresponds to COc1cccc(C2C(C#N)=C(N)Oc3cc(N)ccc32)c1 (configuration not stated) ?
result: 0.506 µM

query: Which measured GI50 value corresponds to Cc1cccc(Oc2nccc(-c3c(-c4ccc(F)cc4)ncn3C3CCNCC3)n2)c1C ?
result: 5.79 µM

query: Which measured GI50 value corresponds to COc1cc(C(=O)/C=C/c2cc(C(=O)c3cc(OC)c(OC)c(OC)c3)ccc2OC)ccc1N ?
result: 0.74 µM

query: Which measured GI50 value corresponds to COc1ccc(C(=O)c2ccc(OC)c(OC)c2OC)cc1 ?
result: 6.63 µM

###

# TGI per record follows
# Test system: CAKI-1 renal
# TEST NAME: NCI tumour cell line growth inhibition, 48 h

Brc1ccc(-c2nnc(-c3nn(-c4ccccc4)c4nc5ccccc5nc34)o2)cc1 : > 100 µM
CCC1=CC2CN3CCc4c([nH]c5ccccc45)C(C(=O)OC)(C2)C13 (stereo not given) : 46.5 µM
COc1cc2c(c(C)c1O)[C@H]1COc3ccccc3[C@H]1O2 : 30 µM
O=P(O)(O)c1ccccc1 (tested in a mixture with another compound) : > 100 µM

Could you now look at the following compound, please?
query: Which measured TGI value corresponds to CCCn1c(SCC)c2ccccc2c1-c1nc(F)nc(F)n1 ?
result: > 100 µM

###

# System: K-562 leukemia
# TEST NAME: NCI tumour cell line growth inhibition, 48 h
# TGI per record follows

In the examples that follow, each entry is paired with its recorded TGI.
COCC1OC(OC2C3=C(C(C)C)CCC3(C)/C=C3\C(CCC3(O)COC)C(C)C2O)C(O)C2OC3OC12OC3(C)C1CO1 (stereo not given) : > 100 µM
Cc1cccc2c1Oc1cc(Cl)ccc1C2NC(=O)CCN1CCN(CCO)CC1 (stereo not given) : 40.6 µM
CN1C2CC(=O)CC1[C@H](O)[C@@H]2O : > 100 µM
N#CCCN(CCC#N)c1ccc(C(N=Nc2ccccc2)=Nc2ccccc2)cc1 : > 100 µM
O=[N+]([O-])c1ccc(C2=NOC(c3ccccc3F)N2C23CC4CC(CC(C4)C2)C3)cc1 (stereo not given) : > 100 µM
COC(=O)C(CCCC1(c2ccccc2)OCCO1)C(C)=O (stereo not given) : > 100 µM
COc1ccc(/C(Cl)=C(\C=O)c2ccc([N+](=O)[O-])cc2)cc1OC : > 93.3 µM
COc1nc(SC)nc2c1cnn2C1OC(C(O)CO)C(OC)C1O (stereo not given) : > 100 µM

query: Which measured TGI value corresponds to O=c1cc(N2CCOCC2)[nH]c(=O)n1-c1cccc(C(F)(F)F)c1 ?
result: > 100 µM

query: Which measured TGI value corresponds to CN(C)CCNc1ccc2c(=O)n(CCN(C)C)c(=O)n3c4ccc([N+](=O)[O-])cc4c(=O)c1c23 ?
result: 1.94 µM

###

# System: OVCAR-5 ovarian
# TEST NAME: NCI tumour cell line growth inhibition, 48 h
PARAMETER MEASURED: TGI

query: Which measured TGI value corresponds to COC(=O)C(O)P(=O)(OC)OC (stereo not drawn) ?
result: > 100 µM

query: Which measured TGI value corresponds to Nc1nc(SCCNC(=O)CCc2ccc(O)cc2)nc2c1ncn2C1OC(CO)C(O)C1O (stereo not drawn) ?
result: > 203 µM

query: Which measured TGI value corresponds to COC1=CC(=O)[C@H]2[C@H](C)C(c3ccccc3)[C@@]2(C)C1=O (stereo partly drawn) ?
result: > 100 µM

query: Which measured TGI value corresponds to CC1(C)N=C(C(N)=O)c2ncn(-c3ccccc3)c2N1 ?
result: > 100 µM

query: Which measured TGI value corresponds to CSc1nc(-c2cc3c(c(SC)n2)CCCCC3)cc2c1CCCCC2 ?
result: > 100 µM

query: Which measured TGI value corresponds to CC(=O)C(=[N+]=[N-])C(=O)OC(C)(C)C#N ?
result: > 10 µM

query: Which measured TGI value corresponds to Cc1cc2cc3cc(C)c(N(C)C)cc3nc2cc1N(C)C ?
result: > 100 µM

query: Which measured TGI value corresponds to COc1cc(CCCOC(=O)/C=C/c2ccc(O)c(O)c2)cc(O)c1O ?
result: > 100 µM

###

# Test system: ACHN renal
# TEST NAME: NCI tumour cell line growth inhibition, 48 h
PARAMETER MEASURED: TGI (µM)
Number only, in µM; omit the unit.

In the examples that follow, each entry is paired with its recorded TGI.
S=C(N/N=C(/c1ccccc1)c1ccccn1)Nc1ccccc1Cl : 9.46
CCCC/C=C/C1Cc2ccccc2CN1S(=O)(=O)c1ccc(C)cc1 (stereo not given) : 22.5
CC(C)CCOc1ccc(-c2n[nH]c(C(F)(F)F)c2-c2cncc(C#N)c2)c(O)c1 : 9.02
CCN(CC)CCCNc1cccc2c(SCc3ccccc3)ccnc12 : 3.27

query: Which measured TGI value corresponds to CCn1c2c(n(CC)c1=S)-c1c(n(CC)c(=S)n1CC)SSSS2 ?
result: 16

###

# Test system: UACC-257 melanoma
# TEST NAME: NCI tumour cell line growth inhibition, 48 h; in the data active means GI50 below about 0.43 µM; inactive means the rest
Allowed answers: 1 (active), 0 (inactive)

Illustrative cases are given below, each with its answer.
ClC1=C(Cl)C(Cl)=C(Cl)C1=C/C=C/c1ccccc1 : 1
COCC1CCCN1c1ccc(/C=C(/C#N)C(N)=S)cc1 (centres undefined) : 0
CCCCCCCC/C=C/CCCCCCCC1=NCC[N+]1(CCO)CCO : 0

Here is the next item to consider.
query: What did the test return for COc1cccc(C2C(C#N)=C(N)Oc3cc(N)ccc32)c1 (centres undefined) ?
result: 1
